System: Bacillus subtilis
assay details: Antibacterial activity against Bacillus subtilis NBRC 13719 after overnight incubation by microdilution method
Assay type: functional
experimental parameters: Bacillus subtilis, NBRC 13719; read-out: MIC
property: MIC (µM)

# MIC of NC[C@H]1O[C@H](O[C@H]2[C@H](O)[C@@H](O[C@H]3O[C@H](CO)[C@@H](O)[C@H](N)[C@H]3O)[C@H](N)C[C@@H]2N)[C@H](N)[C@@H](O)[C@@H]1O = 1.25

# MIC of CC1(C)S[C@@H]2[C@H](NC(=O)[C@H](N)c3ccccc3)C(=O)N2[C@H]1C(=O)O = 1.25

###

Test system: Staphylococcus aureus
assay details: Antibacterial activity against Staphylococcus aureus NBRC 100910 after overnight incubation by microdilution method
Assay type: functional
experimental parameters: Staphylococcus aureus, NBRC 100910; read-out: MIC
property: MIC (µM)

Please review the entries below; each comes with its answer.
# MIC of O=c1c2ccc(O)cc2oc2cc(O)cc(O)c12 = 100

# MIC of O=c1c2ccccc2oc2cc(O)cc(O)c12 = 100

[A] NC[C@H]1O[C@H](O[C@H]2[C@H](O)[C@@H](O[C@H]3O[C@H](CO)[C@@H](O)[C@H](N)[C@H]3O)[C@H](N)C[C@@H]2N)[C@H](N)[C@@H](O)[C@@H]1O
[B] O=c1c2c(O)cc(O)cc2oc2cc(O)cc(O)c12
QUERY: Could you tell me which of A and B has the lower MIC reading? Could you answer with the label of the item you picked?
RESULT: A

###

System: Staphylococcus aureus
assay details: Antibacterial activity against Staphylococcus aureus NBRC 100910 after overnight incubation by microdilution method
Assay type: functional
experimental parameters: Staphylococcus aureus, NBRC 100910; read-out: MIC
property: MIC (µM)

# MIC of COc1cc(OC)c(C(c2ccccc2)c2c(O)cc(O)c3c(=O)c4ccc(O)cc4oc23)cc1OC (stereo in doubt; (-)-2) = 10

[P] COc1cc(OC)c(C(c2ccccc2)c2c(O)cc(O)c3c(=O)c4c(O)cc(O)cc4oc23)cc1OC (single isomer, unassigned; (-))
[Q] CC1(C)S[C@@H]2[C@H](NC(=O)[C@H](N)c3ccccc3)C(=O)N2[C@H]1C(=O)O
QUERY: Could you tell me which of P and Q has the lower MIC reading? Could you answer with the label of the item you picked?
RESULT: Q
(Q: 1.25 µM, P: 12.5 µM)

###

Tested on: Staphylococcus aureus
assay details: Antibacterial activity against Staphylococcus aureus NBRC 100910 after overnight incubation by microdilution method
Assay type: functional
property: MIC (µM)

[a] COc1cc(OC)c(C(c2ccccc2)c2c(O)cc(O)c3c(=O)c4ccccc4oc23)cc1OC (single isomer, unassigned; (-))
[b] COc1cc(OC)c(C(c2ccccc2)c2c(O)cc(O)c3c(=O)c4ccccc4oc23)cc1OC (racemic)
QUERY: Could you tell me which of a and b has the lower MIC reading? Could you answer with the label of the item you picked?
RESULT: b
(b: 25 µM, a: 50 µM)

###

System: Bacillus subtilis
assay details: Antibacterial activity against Bacillus subtilis NBRC 13719 after overnight incubation by microdilution method
Format: functional
experimental parameters: Bacillus subtilis, NBRC 13719; read-out: MIC
// values below are reported MIC

# MIC of O=c1c2c(O)cc(O)cc2oc2cc(O)cc(O)c12 = > 100 µM

***
# MIC of COc1cc(OC)c(C(O)c2ccccc2)cc1OC (stereo not given) = > 100 µM

# MIC of COc1cc(OC)c(C(c2ccccc2)c2c(O)cc(O)c3c(=O)c4ccc(O)cc4oc23)cc1OC (racemic) = 12.5 µM

# MIC of COc1cc(OC)c2c(=O)c3c(O)cc(OC)c(C(c4ccccc4)c4cc(OC)c(OC)cc4OC)c3oc2c1 (racemic) = > 100 µM

# MIC of COc1cc(OC)c(C(=O)c2ccccc2)cc1OC = > 100 µM

# MIC of COc1cc(OC)c(C(c2ccccc2)c2c(O)cc(O)c3c(=O)c4ccccc4oc23)cc1OC (racemic) = > 100 µM

# MIC of O=c1c2ccccc2oc2cc(O)cc(O)c12 = > 100 µM

# MIC of COc1cc(OC)c(C(c2ccccc2)c2c(O)cc(O)c3c(=O)c4c(O)cc(O)cc4oc23)cc1OC (single isomer, unassigned; (-)) = 100 µM

# MIC of COc1cc(OC)c2c(=O)c3c(O)cc(O)c(C(c4ccccc4)c4cc(OC)c(OC)cc4OC)c3oc2c1 (racemic) = > 100 µM

# MIC of COc1cc(OC)c2c(=O)c3c(O)cc(O)cc3oc2c1 = > 100 µM
